- System: PC-3M
- Protocol Description: Anticancer activity in human PC-3M cells expressing PTB/GFP fusion protein assessed as perinucleolar compartment disassembly and measured after 24 hrs by Hoechst 33342 staining based microscopic method
- Format: functional, cell-based
- Experimental Setup: read-out: pIC50 (converted)
Classes based on IC50: low interval (below 2 µM), middle interval (2 µM to below 7 µM), high interval (7 µM or more)

INSERT INTO assay_data (compound, subject_of_test, assigned_class) VALUES
  ('N=c1c2c(-c3ccccc3)c(-c3ccccc3)n(CCc3ccccc3)c2ncn1CCCCO', 'PC-3M', 'middle interval'),
  ('COc1ccc(Cn2c(-c3ccccc3)c(-c3ccccc3)c3c(=N)n([C@H]4CC[C@H](O)CC4)cnc32)cc1', 'PC-3M', 'low interval'),
  ('N=c1c2c(-c3ccccc3)c(-c3ccccc3)n(CCc3ccccc3)c2ncn1C1CCOCC1', 'PC-3M', 'high interval'),
  ('N=c1c2c(-c3ccccc3)c(-c3ccccc3)n(Cc3ccc(S(N)(=O)=O)cc3)c2ncn1CC1CCOCC1', 'PC-3M', 'high interval'),
  ('N=c1c2c(-c3ccccc3)c(-c3ccccc3)n(Cc3ccccc3)c2ncn1C1CCOCC1', 'PC-3M', 'low interval'),
  ('N=c1c2c(-c3ccccc3)c(-c3ccccc3)n(Cc3ccccc3)c2ncn1CCNc1ccncc1', 'PC-3M', 'middle interval'),
  ('N=c1c2c(-c3ccccc3)c(-c3ccccc3)n(Cc3ccc(OC(F)(F)F)cc3)c2ncn1CCCO', 'PC-3M', 'middle interval'),
  ('N=c1c2c(-c3ccccc3)c(-c3ccccc3)n(Cc3ccc(OC(F)(F)F)cc3)c2ncn1[C@H]1CC[C@@H](O)CC1', 'PC-3M', 'middle interval'),
  ('COc1ccc(Cn2c(-c3ccccc3)c(-c3ccccc3)c3c(=N)n(CC4CCOCC4)cnc32)cc1', 'PC-3M', 'high interval'),
  ('N=c1c2c(-c3ccccc3)c(-c3ccccc3)n(CCc3ccccc3)c2ncn1CCO', 'PC-3M', 'low interval'),
  ('N=c1c2c(-c3ccccc3)c(-c3ccccc3)n(CCc3ccccc3)c2ncn1CC1CCCO1 (stereo not drawn)', 'PC-3M', 'high interval'),
  ('N=c1c2c(-c3ccccc3)c(-c3ccccc3)n(Cc3ccc(S(N)(=O)=O)cc3)c2ncn1C1CCOCC1', 'PC-3M', 'low interval'),
  ('COc1ccc(Cn2c(-c3ccccc3)c(-c3ccccc3)c3c(=N)n(CC4CCCO4)cnc32)cc1 (stereo not drawn)', 'PC-3M', 'high interval'),
  ('CN(C)CCn1cnc2c(c(-c3ccccc3)c(-c3ccccc3)n2Cc2ccccc2)c1=N', 'PC-3M', 'middle interval'),
  ('COc1ccc(Cn2c(-c3ccccc3)c(-c3ccccc3)c3c(=N)n(C4CCOCC4)cnc32)cc1', 'PC-3M', 'low interval'),
  ('COc1ccc(Cn2c(-c3ccccc3)c(-c3ccccc3)c3c(=N)n(CCO)cnc32)cc1', 'PC-3M', 'middle interval'),
  ('N=c1c2c(-c3ccccc3)c(-c3ccccc3)n(Cc3ccccc3)c2ncn1CCCCCO', 'PC-3M', 'middle interval');

====

- Protocol Description: Microsomal stability in CD1 mouse liver microsomes assessed as half life measured upto 60 mins in presence of NADPH by LC-MS analysis
- Experimental Setup: mouse, microsomes, 1 h
Criterion: t1/2 strictly under 20 min. Met: Met. Not met: Not met.

INSERT INTO results (compound, assigned_class) VALUES
  ('N=c1c2c(-c3ccccc3)c(-c3ccccc3)n(CCc3ccccc3)c2ncn1C1CCOCC1', 'Met'),
  ('N=c1c2c(-c3ccccc3)c(-c3ccccc3)n(Cc3ccccc3)c2ncn1C[C@@H]1CCCC[C@H]1CO (relative stereo)', 'Met'),
  ('C[C@H]([C@@H](O)c1ccccc1)n1cnc2c(c(-c3ccccc3)c(-c3ccccc3)n2Cc2ccccc2)c1=N', 'Met'),
  ('COc1ccc(CCn2cnc3c(c(-c4ccccc4)cn3Cc3ccccc3)c2=N)cc1OC', 'Met'),
  ('N=c1c2c3c(n(CCc4ccccc4)c2ncn1[C@H]1CC[C@H](O)CC1)CCCC3', 'Not met'),
  ('N=c1c2c(-c3ccccc3)cn(Cc3ccccc3)c2ncn1C1CCOCC1', 'Met'),
  ('N=c1c2c(-c3ccccc3)c(-c3ccccc3)n(Cc3ccccc3)c2ncn1CC1CCOCC1', 'Met'),
  ('COc1ccc(-c2c(-c3ccc(OC)cc3)n(Cc3ccccc3)c3ncn([C@@H]4CCCC[C@H]4O)c(=N)c23)cc1 (mixture of isomers)', 'Not met'),
  ('N=c1c2c(-c3ccccc3)c(-c3ccccc3)n(CCc3ccccc3)c2ncn1C[C@@H]1CCCC[C@H]1O (relative stereo)', 'Met'),
  ('N=c1c2c(-c3ccccc3)c(-c3ccccc3)n(CC3CC3)c2ncn1CCCO', 'Not met'),
  ('N=c1c2c(-c3ccccc3)c(-c3ccccc3)n(CCc3ccccc3)c2ncn1CC1CCOC1 (centres undefined)', 'Met'),
  ('COc1ccc(-c2c(-c3ccc(OC)cc3)n(Cc3ccccc3)c3ncn(C4CCOCC4)c(=N)c23)cc1', 'Not met'),
  ('N=c1c2c(-c3ccccc3)c(-c3ccccc3)n(Cc3ccc(S(N)(=O)=O)cc3)c2ncn1C1CCOCC1', 'Not met');
